Can you tell me pIC50 for the items I'm about to list?
- target-desc: Urotensin-2 receptor (Rattus norvegicus)
- Sequence (P49684 whole entry): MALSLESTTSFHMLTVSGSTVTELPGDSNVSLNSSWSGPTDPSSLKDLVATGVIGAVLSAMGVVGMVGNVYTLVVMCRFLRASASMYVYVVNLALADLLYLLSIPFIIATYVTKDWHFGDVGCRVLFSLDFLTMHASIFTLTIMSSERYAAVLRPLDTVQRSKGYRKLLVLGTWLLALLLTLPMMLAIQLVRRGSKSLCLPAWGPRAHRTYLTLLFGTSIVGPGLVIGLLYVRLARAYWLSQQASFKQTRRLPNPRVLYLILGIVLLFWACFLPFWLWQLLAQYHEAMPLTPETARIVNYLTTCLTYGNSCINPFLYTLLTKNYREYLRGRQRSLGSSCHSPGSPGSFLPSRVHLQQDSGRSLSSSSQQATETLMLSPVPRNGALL
- test-summary: Antagonist activity at rat urotensin 2 receptor expressed in CHOK1 cells assessed as inhibition of urotensin 2-induced intracellular calcium mobilization after 1 hr by FLIPR assay
- Type: functional, cell-based, CHO-K1
- test-parameters: in the assay text read “after 10 min” for “after 1 hr”
In simple prose, pIC50 is minus the logarithm base ten of a concentration in moles per litre.

Dear colleague, I am looking for the recorded pIC50 of the following molecule: COc1ccc([C@@H](CCCCNC(=O)OC(C)(C)C)N2C(=O)c3cccc(N4CCN([C@H](C)c5ccccc5)CC4)c3C2=O)cc1OC
4.19

Also COc1ccc(C(CN)N2C(=O)c3cccc(N4CCN([C@@H](C)c5ccccc5)CC4)c3C2=O)cc1OC (some centres not stated) ?
6.52

Ok, now COc1ccc(C(CNS(=O)(=O)c2cccs2)N2C(=O)c3cccc(N4CCN([C@@H](C)c5ccccc5)CC4)c3C2=O)cc1OC (some centres not stated)
7.12

Now consider COc1cc(Br)c(S(=O)(=O)Nc2ccc(C(F)(F)F)c(O[C@@H]3CCN(C)C3)c2)cc1OC .
7.47

Same question, CCN1CCN(c2cccc3c2CN([C@H](CCCNc2cncc(OC)n2)c2ccc(OC)c(OC)c2)C3=O)CC1 this time
8.40

// repeat for COc1ccc([C@@H](CCCNC(=O)c2cnoc2C)N2Cc3c(cccc3N3CCN([C@H](C)c4ccccc4)CC3)C2=O)cc1OC and report
8.22

---

- test-summary: Half life in rat
- Type: ADME, organism-based
- test-parameters: in vivo
experimental-readout: half-life (h)
Only the number, expressed in h, is required.

Quick one: half-life for COc1ccc(CN2C(=O)c3cccc(N4CCN([C@H](C)c5ccccc5)CC4)c3C2=O)cc1OC ?
4

---

- target-desc: Urotensin-2 receptor (Homo sapiens, UniProt Q9UKP6)
- Sequence (Q9UKP6 whole entry): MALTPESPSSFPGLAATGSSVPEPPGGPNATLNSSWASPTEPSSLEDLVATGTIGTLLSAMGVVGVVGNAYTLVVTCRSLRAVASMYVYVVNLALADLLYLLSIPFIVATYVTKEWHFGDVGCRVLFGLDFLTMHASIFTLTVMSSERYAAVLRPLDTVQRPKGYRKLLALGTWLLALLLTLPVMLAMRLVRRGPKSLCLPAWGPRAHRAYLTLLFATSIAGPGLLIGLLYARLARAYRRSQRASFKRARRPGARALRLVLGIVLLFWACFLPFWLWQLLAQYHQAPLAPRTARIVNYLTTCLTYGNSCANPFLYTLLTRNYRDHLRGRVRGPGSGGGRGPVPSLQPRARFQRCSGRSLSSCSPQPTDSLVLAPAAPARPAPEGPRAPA
- test-summary: Displacement of [125I]urotensin 2 from urotensin 2 receptor in human RMS13 cells by scintillation proximity assay
Labelling: Ki reported below 40 nM becomes Condition met; at or above becomes Condition not met.

Input COc1ccc(C(CNS(=O)(=O)c2cccs2)N2C(=O)c3cccc(N4CCN([C@@H](C)c5ccccc5)CC4)c3C2=O)cc1OC (some centres not stated) ; condition: Ki strictly below 40 nM. Does it hold?
Condition not met

And the next one, CCN1CCN(c2cccc3c2CN([C@H](CCCN(C)S(=O)(=O)c2cccs2)c2ccc(OC)c(OC)c2)C3=O)CC1 ?
Condition met

How about this compound: COc1ccc(C(CNC(=O)OC(C)(C)C)N2C(=O)c3cccc(N4CCN([C@@H](C)c5ccccc5)CC4)c3C2=O)cc1OC (some centres not stated)
Condition not met

Quick one: COc1ccc([C@@H](CCCNC(=O)c2cnoc2C)N2Cc3c(cccc3N3CCN([C@H](C)c4ccccc4)CC3)C2=O)cc1OC
Condition met

# repeat for COc1ccc(C(CCNC(=O)OC(C)(C)C)N2C(=O)c3cccc(N4CCN([C@@H](C)c5ccccc5)CC4)c3C2=O)cc1OC (some centres not stated)
Condition not met

Now try COc1ccc([C@@H](CCCN(C)S(=O)(=O)c2cccs2)N2Cc3c(cccc3N3CCN(C)CC3)C2=O)cc1OC .
Condition met
